Test system: Phaedon cochleariae
method summary: Phaedon cochleariae spray test
Type: in vivo
experimental conditions: application rate 500 g/ha, after 7 days, Chinese cabbage leaf discs
Entries and their efficacy (beetle larvae killed) values follow.
Reply with just the number (in %).

compound	target desc	value unit	efficacy (beetle larvae killed)
O=C(NC1CCOC1=O)c1cc(-c2ccc(OC(F)(F)F)cc2)cc(NC(=O)C2CC2)n1 (stereo not shown) [Example I-135]	Phaedon cochleariae	%	83

Query: Request body: readout efficacy (beetle larvae killed), system Phaedon cochleariae, query O=C(NC1CC1)c1cc(-c2ccc(OC(F)(F)F)cc2)cc(NC(=O)C2CC2)n1 [Example I-089] . Return the value.
Result: 100

Query: // next record N#Cc1ccc(CNC(=O)c2cc(-c3ccc(OC(F)(F)F)cc3)cc(NC(=O)C3CC3)n2)cn1 [Example I-051]
Result: 100

Query: // next record O=C(NCc1ccc(C(F)(F)F)cc1)c1cc(-c2ccc(C(F)(F)F)cc2)cc(NC(=O)C2CC2)n1 [Example I-027]
Result: 100

Query: // next record N#Cc1cc(F)c(CNC(=O)c2cc(-c3ccc(C(F)(F)F)cc3)cc(NC(=O)C3CC3)n2)c(F)c1 [Example I-068]
Result: 100

Query: // next record N#Cc1c(F)cc(CNC(=O)c2cc(-c3ccc(OC(F)(F)F)cc3)cc(NC(=O)C3CC3)n2)cc1F [Example I-111]
Result: 100

Query: // next record O=C(NCc1ccncc1)c1cc(-c2ccc(C(F)(F)C(F)(F)F)c(F)c2)cc(NC(=O)C2CC2)n1 [Example I-277]
Result: 83
